Origin of the recorded values: patent US20040106626A1

# EXPERIMENTAL TARGET: Human thrombin (Homo sapiens, UniProt P00734)
# Construct: converts prothrombin (II) to thrombin (IIa); purchased Calbiochem, La Jolla, Calif
# EXPERIMENT SUMMARY: Thrombin assay (chromogenic substrate)
# Type: biochemical
# STATED CONDITIONS: reported only as less than or greater than 30 uM; read-out: Thrombin (II) IC50
ASSAY ENDPOINT: IC50

- CC(C)Nc1ncc(-c2cc(N)cc(NS(=O)(=O)c3ccc(F)cc3)c2)n(CC(=O)NCc2ccc(C(=N)N)cc2)c1=O: > 30 µM
- CC(C)Nc1ncc(-c2cc(N)cc(C(=O)NCc3ccccc3)c2)n(CC(=O)NCc2ccc(C(=N)N)cc2)c1=O: < 30 µM
- CC[C@H](C)NC(=O)c1cc(N)cc(-c2cnc(N[C@@H](C)C(C)C)c(=O)n2CC(=O)NCc2ccc(C(=N)N)cc2)c1.O=C(O)C(F)(F)F.O=C(O)C(F)(F)F: < 30 µM
